I'd be grateful if you could share measured NO production inhibitory effect at 100 nM (% inhibition) for these entries.
experimentalSystem: TLR4 (Mus musculus, UniProt Q9QUK6)
Construct: endogenous in cells; host or cells: RAW264.7 (murine macrophage cell line)
Sequence (Q9QUK6 26-835): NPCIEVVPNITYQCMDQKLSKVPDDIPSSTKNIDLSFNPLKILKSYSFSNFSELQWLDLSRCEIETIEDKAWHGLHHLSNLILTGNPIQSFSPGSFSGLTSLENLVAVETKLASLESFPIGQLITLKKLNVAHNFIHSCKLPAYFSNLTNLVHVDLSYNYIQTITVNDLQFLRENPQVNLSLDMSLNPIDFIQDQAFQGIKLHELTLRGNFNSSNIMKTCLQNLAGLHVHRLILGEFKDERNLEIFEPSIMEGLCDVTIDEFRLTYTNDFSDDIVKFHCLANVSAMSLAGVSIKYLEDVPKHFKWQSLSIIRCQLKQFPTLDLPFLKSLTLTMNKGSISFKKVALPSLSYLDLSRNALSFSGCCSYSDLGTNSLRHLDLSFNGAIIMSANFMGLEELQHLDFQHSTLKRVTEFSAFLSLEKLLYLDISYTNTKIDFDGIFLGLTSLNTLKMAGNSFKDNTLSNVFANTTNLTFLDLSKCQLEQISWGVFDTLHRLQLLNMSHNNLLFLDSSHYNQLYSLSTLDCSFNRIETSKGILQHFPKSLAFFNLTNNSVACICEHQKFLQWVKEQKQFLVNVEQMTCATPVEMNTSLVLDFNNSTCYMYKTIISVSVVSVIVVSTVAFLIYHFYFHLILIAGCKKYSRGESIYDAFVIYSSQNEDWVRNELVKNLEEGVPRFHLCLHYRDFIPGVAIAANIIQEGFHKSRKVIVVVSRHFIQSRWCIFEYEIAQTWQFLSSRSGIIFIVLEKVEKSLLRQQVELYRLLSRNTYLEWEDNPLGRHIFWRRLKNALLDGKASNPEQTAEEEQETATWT
Sequence (Q9JHF9 19-160 partner): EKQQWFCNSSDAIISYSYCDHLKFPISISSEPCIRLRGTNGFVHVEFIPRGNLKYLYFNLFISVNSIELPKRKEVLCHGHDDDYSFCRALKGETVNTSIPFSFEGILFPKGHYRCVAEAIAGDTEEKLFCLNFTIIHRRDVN
measurementNotes: Inhibitory effect with respect to NO production (LPS/interferon γ stimulated RAW264.7 cells)
Type: cell-based, murine
appliedConditions: test compound 100 nM, LPS 1.25 ng/mL + mouse interferon γ 0.2 ng/mL, nitrite ion in culture supernatant
# number only, unit % inhibition dropped from output

Query: What value of measured NO production inhibitory effect at 100 nM (% inhibition) is listed for CCOC(=O)C1=CC2(CCC1S(=O)(=O)Cc1cccc(Cl)c1)O[C@H](CO)[C@@H](CO)O2 (stereo partly drawn) ?
Result: 100

Query: Further, for CCOC(=O)C1=CC2(CCC1S(=O)(=O)Cc1cc(Cl)ccc1F)O[C@H](CO)[C@@H](CO)O2 (stereo partly drawn) ?
Result: 100

Query: Follow-up entry: CCOC(=O)C1=CC2(CCC1S(=O)(=O)Cc1ccc(F)cc1Cl)O[C@H](COC(=O)CN)[C@@H](COC(=O)CN)O2 (stereo partly drawn)
Result: 100
